Where do the numbers come from? From paper PMC11584656.

# Tgt: HLA-E*01:03 (Homo sapiens, UniProt P13747)
# Format: binding
# Condition set: Figure 1a source data, replicate 3; 60:1 peptide excess
Please enter fulfilled where Tm (°C) is greater than or equal to 40 °C, and not fulfilled where it is lower.

Exam item: decide whether the reported Tm (°C) for RWMCLRRFI [HBV Env peptide 236-244] is at least 40 °C.
not fulfilled

And the next one, CIPIPSSWAF [HBV Env peptide 312-321] ?
fulfilled

And the next one, GMLPVCPLL [HBV Env peptide 265-273] ?
fulfilled

* * *

# Tgt: HLA-E*01:03 (Homo sapiens, UniProt P13747)
# Assay type: binding
# Condition set: […]; SYPRO Orange, 22-95 °C at 1 °C/min; mean ± SD of triplicates; SD
Parameter: Thermal stability Tm (°C)
For clarity, give the value followed by its unit.

Worked examples follow.
[
  {
    "Construct sequence": "CIPIPSSWAF [HBV Env peptide 312-321]",
    "Thermal stability Tm (°C)": "42.1±0.3 °C"
  },
  {
    "Construct sequence": "SSWAFARFL [HBV Env peptide 317-325]",
    "Thermal stability Tm (°C)": "40.7±0.1 °C"
  },
  {
    "Construct sequence": "RWMCLRRFI [HBV Env peptide 236-244]",
    "Thermal stability Tm (°C)": "38.2±0.3 °C"
  },
  {
    "Construct sequence": "GMLPVCPLL [HBV Env peptide 265-273]",
    "Thermal stability Tm (°C)": "45.3±0.3 °C"
  }
]

Now turn to the next sequence.
Look up Thermal stability Tm (°C) for this sequence: FIIFLFILL [HBV Env peptide 243-251]
39.3±0.3 °C

* * *

# Tgt: HLA-E*01:03 (Homo sapiens)
# Assay type: binding
# Condition set: Figure 1a source data, replicate 1; 60:1 peptide excess
Parameter: Tm (°C)

Worked examples follow.
[
  {
    "Construct sequence": "SSWAFARFL [HBV Env peptide 317-325]",
    "Tm (°C)": "40.7 °C"
  },
  {
    "Construct sequence": "RWMCLRRFI [HBV Env peptide 236-244]",
    "Tm (°C)": "37.9 °C"
  },
  {
    "Construct sequence": "GMLPVCPLL [HBV Env peptide 265-273]",
    "Tm (°C)": "45.1 °C"
  },
  {
    "Construct sequence": "CIPIPSSWAF [HBV Env peptide 312-321]",
    "Tm (°C)": "42.2 °C"
  }
]

Now turn to the next sequence.
Look up Tm (°C) for this sequence: FIIFLFILL [HBV Env peptide 243-251]
38.9 °C

* * *

# Tgt: HLA-E*01:03 (Homo sapiens)
# Format: binding
# Condition set: Figure 1a source data, replicate 2; 60:1 peptide excess
So basically: is Tm (°C) under 40 °C? Then T. Not under? Then F.

These recorded examples may help you get a feel for the data.
[
  {
    "Construct sequence": "CIPIPSSWAF [HBV Env peptide 312-321]",
    "Assigned class": "F"
  },
  {
    "Construct sequence": "RWMCLRRFI [HBV Env peptide 236-244]",
    "Assigned class": "T"
  }
]

Now let's try a different one.
Does the reported Tm (°C) of the following sequence sit strictly below 40 °C? GMLPVCPLL [HBV Env peptide 265-273]
F
